Where do the numbers come from? From PubChem BioAssay AID1159580.

Experiment: chemical genetic growth profiling, strain panel (AID 1159580);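 further: tested at 20 µM; growth read once vehicle control cultures reached saturation at 30 °C; 1 = growth at the plate median or of vehicle wells; lower values mean less growth of the strain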
Conditions: S. cerevisiae deletion strains, growth OD, locus YPL153C, strain RAD53, active compounds read low
Hit rate of the full screen: of about 5,500 compounds, about 2,000 (36%) were called active. Another 18% or so got no clear call; they are omitted. The list shows a part of the results.
Recorded normalized growth determines the group label, using group 1: < 0.7; group 2: ≥ 0.7 and < 0.9; group 3: ≥ 0.9

>  <Sample smiles>
O=S(=O)(NCc1ccc(C(F)(F)F)cc1)c1cccc(C(F)(F)F)c1

>  <Assigned category>
group 3

$$$$
>  <Sample smiles>
CC1=CC(=O)N(c2ccc(OC(F)(F)F)cc2)C1=O

>  <Assigned category>
group 1

$$$$
>  <Sample smiles>
O=C(Nc1ccncc1)c1cc(-c2ccccc2)oc1C(F)(F)F

>  <Assigned category>
group 3

$$$$
>  <Sample smiles>
O=C(Nc1cc(Cl)ccc1O)c1ccccc1CSc1ccc(Cl)cc1

>  <Assigned category>
group 2

$$$$
>  <Sample smiles>
N/C(=N/O)c1ccc(Oc2ccc(C3SCCS3)cc2)c([N+](=O)[O-])c1

>  <Assigned category>
group 3

$$$$

Switching to the query record.
In: Category of Cc1noc(C)c1S(=O)(=O)Nc1csc(C(F)(F)F)c1-c1ccccc1 :
Out: group 3

---

Assay: chemical genetic growth profiling, strain panel (AID 1159580);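 further: tested at 20 µM; growth read once vehicle control cultures reached saturation at 30 °C; 1 = growth at the plate median or of vehicle wells; lower values mean less growth of the strain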
Settings: S. cerevisiae deletion strains, growth OD, locus YIL073C, strain SPO22, active compounds read low
The campaign covered roughly 5,500 compounds. About 2,000 (36%) were called active. Not shown: some 18% with an inconclusive outcome. Some of the results follow.
normalized growth for assorted compounds
Response field accepts a number only; no unit should be typed.

Past entries and their recorded results:
>  <Compound>
C[C@]12CCC3c4ccc(O)cc4CCC3C1CCC2=O (some centres undefined)

>  <normalized growth>
0.94

$$$$
>  <Compound>
CC12CCC3C(=CCc4cc(O)ccc43)C1CCC2=O (centres undefined)

>  <normalized growth>
0.897

$$$$
>  <Compound>
CNc1ccc(C(=O)CC(O)CCC(C)C2OC(=O)CC(O)CC(=O)CC(O)CC(O)CC(O)CC(O)CC3(O)CC(O)C(C(=O)OC)C(CC(OC4OC(C)C(O)C(N)C4O)/C=C/C=C/C=C/C=C/C=C/C=C/C=C/C2C)O3)cc1 (centres undefined)

>  <normalized growth>
0.63

$$$$
>  <Compound>
O=C(O)CCC1NCC2CC1CN1CCCCC21 (centres undefined)

>  <normalized growth>
1.03

$$$$
>  <Compound>
CC1[C@H](C)OC(=O)CC(O)CC(O)CC(O)CCC(O)C(O)C[C@]2(O)CC(O)C(C(=O)O)C(CC(OC3O[C@H](C)[C@@H](O)[C@H](N)[C@@H]3O)/C=C/C=C/C=C/C=C/CC/C=C/C=C/[C@H](C)[C@H]1O)O2 (some centres undefined)

>  <normalized growth>
0.987

$$$$

Now take the following compound into account.
In: Which measured normalized growth value corresponds to CC1OC(O[C@H]2/C=C/C=C/C=C/C=C/C=C/C=C/C=C/[C@H](C)[C@@H](O)[C@@H](C)[C@H](C)OC(=O)CC(O)CC(O)CCC(O)C(O)CC(O)C[C@]3(O)C[C@H](O)C(C(=O)O)C(C2)O3)C(O)[C@H](N)C1O (some centres undefined) ?
Out: 1.11
